Readings of inhibition at 30 µM for the listed compounds
Assay system: hERG (KCNH2) (Homo sapiens, UniProt Q12809)
Sequence (Q12809 whole entry): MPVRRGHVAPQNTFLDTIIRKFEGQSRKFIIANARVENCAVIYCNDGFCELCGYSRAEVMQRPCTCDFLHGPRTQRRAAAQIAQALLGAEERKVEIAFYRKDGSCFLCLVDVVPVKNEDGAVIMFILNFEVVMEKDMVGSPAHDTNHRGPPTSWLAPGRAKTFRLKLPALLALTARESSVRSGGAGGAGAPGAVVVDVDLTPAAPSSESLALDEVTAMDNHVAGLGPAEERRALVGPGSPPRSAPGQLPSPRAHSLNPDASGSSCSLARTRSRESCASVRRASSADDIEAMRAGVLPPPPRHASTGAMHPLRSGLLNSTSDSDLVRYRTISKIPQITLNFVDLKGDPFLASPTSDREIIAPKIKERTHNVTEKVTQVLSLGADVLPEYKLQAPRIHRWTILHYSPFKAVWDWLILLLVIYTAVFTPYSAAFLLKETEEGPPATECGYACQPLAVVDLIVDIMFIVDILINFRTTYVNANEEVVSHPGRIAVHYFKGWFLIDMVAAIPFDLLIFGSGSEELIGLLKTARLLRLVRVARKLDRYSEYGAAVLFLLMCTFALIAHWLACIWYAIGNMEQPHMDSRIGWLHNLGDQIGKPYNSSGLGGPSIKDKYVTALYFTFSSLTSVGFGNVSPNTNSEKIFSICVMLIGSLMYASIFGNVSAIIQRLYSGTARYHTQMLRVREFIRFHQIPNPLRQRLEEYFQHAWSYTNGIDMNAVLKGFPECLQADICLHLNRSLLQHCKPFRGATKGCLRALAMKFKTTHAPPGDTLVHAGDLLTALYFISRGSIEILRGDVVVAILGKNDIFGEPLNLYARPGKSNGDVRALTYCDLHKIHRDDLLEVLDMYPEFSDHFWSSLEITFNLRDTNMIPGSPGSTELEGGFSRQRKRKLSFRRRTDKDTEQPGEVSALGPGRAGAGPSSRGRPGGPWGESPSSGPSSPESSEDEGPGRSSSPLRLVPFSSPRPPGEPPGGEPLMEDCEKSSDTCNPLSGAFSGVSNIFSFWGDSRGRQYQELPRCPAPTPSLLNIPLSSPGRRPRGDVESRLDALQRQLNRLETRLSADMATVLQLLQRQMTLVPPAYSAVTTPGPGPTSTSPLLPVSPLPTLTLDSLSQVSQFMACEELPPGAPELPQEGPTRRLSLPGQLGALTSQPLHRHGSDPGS
Assay summary: Inhibition of human ERG expressed in HEK cells at 30 uM
Format: cell-based, HEK293
Details: HEK cells expressing human ERG

>  <Smi>
CC[C@H]1OC(=O)[C@H](C)[C@@H](O[C@H]2C[C@@](C)(OC)[C@@H](O)[C@H](C)O2)[C@H](C)[C@@H](O[C@@H]2O[C@H](C)C[C@H](N(C)C(C)C)[C@H]2O)[C@](C)(O)C[C@@H](C)[C@H](OCC(=O)NC2CCC2)[C@H](C)[C@@H](O)[C@]1(C)O

>  <inhibition at 30 µM / %>
64

$$$$
>  <Smi>
CCNC(=O)CO[C@@H]1[C@H](C)[C@@H](O)[C@](C)(O)[C@@H](CC)OC(=O)[C@H](C)[C@@H](O[C@H]2C[C@@](C)(OC)[C@@H](O)[C@H](C)O2)[C@H](C)[C@@H](O[C@@H]2O[C@H](C)C[C@H](N(C)C(C)C)[C@H]2O)[C@](C)(O)C[C@H]1C

>  <inhibition at 30 µM / %>
24

$$$$
>  <Smi>
CC[C@H]1OC(=O)[C@H](C)[C@@H](O[C@H]2C[C@@](C)(OC)[C@@H](O)[C@H](C)O2)[C@H](C)[C@@H](O[C@@H]2O[C@H](C)C[C@H](N(C)C(C)C)[C@H]2O)[C@](C)(O)C[C@@H](C)[C@H](OCC(=O)NOC)[C@H](C)[C@@H](O)[C@]1(C)O

>  <inhibition at 30 µM / %>
33

$$$$
>  <Smi>
CC[C@H]1OC(=O)[C@H](C)[C@@H](O[C@H]2C[C@@](C)(OC)[C@@H](O)[C@H](C)O2)[C@H](C)[C@@H](O[C@@H]2O[C@H](C)C[C@H](N(C)C(C)C)[C@H]2O)[C@](C)(O)C[C@@H](C)[C@H](OCC(=O)N(C)C)[C@H](C)[C@@H](O)[C@]1(C)O

>  <inhibition at 30 µM / %>
8

$$$$
>  <Smi>
CC[C@H]1OC(=O)[C@H](C)[C@@H](O[C@H]2C[C@@](C)(OC)[C@@H](O)[C@H](C)O2)[C@H](C)[C@@H](O[C@@H]2O[C@H](C)C[C@H](N(C)C(C)C)[C@H]2O)[C@](C)(O)C[C@@H](C)[C@H](OCC(=O)NC)[C@H](C)[C@@H](O)[C@H]1C

>  <inhibition at 30 µM / %>
21

$$$$
>  <Smi>
CC[C@H]1OC(=O)[C@H](C)[C@@H](O[C@H]2C[C@@](C)(OC)[C@@H](O)[C@H](C)O2)[C@H](C)[C@@H](O[C@@H]2O[C@H](C)C[C@H](N(C)C(C)C)[C@H]2O)[C@](C)(O)C[C@@H](C)[C@H](OCC(=O)NCCO)[C@H](C)[C@@H](O)[C@]1(C)O

>  <inhibition at 30 µM / %>
29

$$$$
>  <Smi>
CC[C@H]1OC(=O)[C@H](C)[C@@H](O[C@H]2C[C@@](C)(OC)[C@@H](O)[C@H](C)O2)[C@H](C)[C@@H](O[C@@H]2O[C@H](C)C[C@H](N(C)C(C)C)[C@H]2O)[C@](C)(O)C[C@@H](C)[C@H](OCC(=O)NCC(F)(F)F)[C@H](C)[C@@H](O)[C@]1(C)O

>  <inhibition at 30 µM / %>
30

$$$$

All values here come from ChEMBL document CHEMBL1154611.
